Provide the reported pIC50 of each item.
Tested on: human MD-MBA-231 breast cancer cells
Procedure text: CellTiter-Blue cell viability, monotherapy
Type: cell-based
Assay context: 72 hours incubation, read-out: 72 Hours Treatment IC50
A value of pIC50 is the negative decimal logarithm of a concentration given in moles per litre.

Challenge: Recorded pIC50 of CC(=O)N[C@@H](CS)C(=O)NCCC[Si](C)(C)C , please.
Response given: 4.67

Challenge: Recorded pIC50 of CC(=O)N[C@@H](CS)C(=O)NC[Si](C)(C)c1ccccc1 , please.
Response given: 4.55

Challenge: Recorded pIC50 of CC(=O)N[C@@H](CS)C(=O)NC[Si](C)(C)C , please.
Response given: 3.88

Challenge: Recorded pIC50 of CC(=O)N[C@@H](CS)C(=O)O [N-Acetyl-L-Cysteine, reference compound] , please.
Response given: 3.56

Entry source: patent US20090306015A1
